Data origin: patent US10246453B2

Listing of recorded pIC50 by entry.
Molecular target: NaV1.1 (Homo sapiens (Human))
Assay: Sodium Influx Assay (Flux), NaV1.1
Assay type: cell-based
Conditions: Trex HEK293 cells, ANG2 dye; arithmetic mean
pIC50: −log10 of the molar value. Counter-ions that a name gives are not always drawn.
measured metric: pIC50

- compound: "CN(c1ccc(S(=O)(=O)Nc2ncns2)cc1Cl)[C@H]1CCN(Cc2cccc(C(F)F)c2)C1 [Example 31]"
  system: "NaV1.1 (Homo sapiens (Human))"
  sign qualifier: "="
  test result: 4.56
- compound: "Cc1cc(S(=O)(=O)Nc2cscn2)c(F)cc1N(C)[C@H]1CCN([C@H]2C[C@H](c3ccccc3)C2)C1 [Example 117]"
  system: "NaV1.1 (Homo sapiens (Human))"
  sign qualifier: "="
  test result: 5.65
- compound: "CN(c1cc(F)c(S(=O)(=O)Nc2cscn2)cc1Cl)[C@H]1CCN(Cc2cccc3ccncc23)C1 [Example 186, 2,2,2-trifluoroacetate]"
  system: "NaV1.1 (Homo sapiens (Human))"
  sign qualifier: "="
  test result: 4.72
- compound: "C[C@H](c1ccccc1)N1CC[C@H](N(C)c2cc(F)c(S(=O)(=O)Nc3cccc(F)n3)cc2Cl)C1 [Example 45, 2,2,2-trifluoroacetate]"
  system: "NaV1.1 (Homo sapiens (Human))"
  sign qualifier: "="
  test result: 4.95
- compound: "Cc1ccc(CN2CC[C@H](N(C)c3cc(F)c(S(=O)(=O)Nc4cscn4)cc3Cl)C2)c(F)c1 [Example 167]"
  system: "NaV1.1 (Homo sapiens (Human))"
  sign qualifier: "="
  test result: 5.19
- compound: "CN(c1cc(F)c(S(=O)(=O)Nc2cscn2)cc1Cl)[C@H]1CCN(Cc2ccc(F)cc2)C1 [Example 180]"
  system: "NaV1.1 (Homo sapiens (Human))"
  sign qualifier: "="
  test result: 4.77
- compound: "Cc1ccc(CN2CCC(Oc3ccc(S(=O)(=O)Nc4nccs4)cc3Cl)CC2)cc1 [Example 24, 2,2,2-trifluoroacetate]"
  system: "NaV1.1 (Homo sapiens (Human))"
  sign qualifier: "="
  test result: 4.90
- compound: "Cc1cccc(CN2CC[C@H](N(C)c3cc(F)c(S(=O)(=O)Nc4cscn4)cc3Cl)C2)n1 [Example 192]"
  system: "NaV1.1 (Homo sapiens (Human))"
  sign qualifier: "<"
  test result: 4.52
- compound: "CN(c1cc(F)c(S(=O)(=O)Nc2cscn2)cc1Cl)[C@H]1CCN(C(C)(C)c2ccccc2)C1 [Example 257, formate]"
  system: "NaV1.1 (Homo sapiens (Human))"
  sign qualifier: "="
  test result: 4.99
- compound: "CC1(Nc2ccc(S(=O)(=O)Nc3nccs3)cc2Cl)CCN(Cc2ccccc2)C1 (stereo not shown) [Example 61]"
  system: "NaV1.1 (Homo sapiens (Human))"
  sign qualifier: "="
  test result: 5.20
- compound: "CN(c1ccc(S(=O)(=O)Nc2cscn2)cc1Cl)[C@H]1CCN(C(C)(C)c2ccccc2)C1 [Example 62]"
  system: "NaV1.1 (Homo sapiens (Human))"
  sign qualifier: "="
  test result: 5.37
- compound: "CN(c1cc(F)c(S(=O)(=O)Nc2cscn2)cc1Cl)[C@@H]1CCN(Cc2ccccc2)C1 [Example 262]"
  system: "NaV1.1 (Homo sapiens (Human))"
  sign qualifier: "="
  test result: 4.60
- compound: "C[C@@H]1CN(Cc2ccccc2)C[C@@H]1Nc1ccc(S(=O)(=O)Nc2nccs2)cc1Cl (relative stereo) [Example 75]"
  system: "NaV1.1 (Homo sapiens (Human))"
  sign qualifier: "="
  test result: 5.38
- compound: "Cc1cc(S(=O)(=O)Nc2cscn2)c(F)cc1N(C)[C@H]1CCN(Cc2coc(C(C)C)n2)C1 [Example 133]"
  system: "NaV1.1 (Homo sapiens (Human))"
  sign qualifier: "="
  test result: 4.96
- compound: "C[C@H](c1ccccc1)N1CCC(Oc2ccc(S(=O)(=O)Nc3ncc(F)cn3)cc2Cl)CC1 [Example 304]"
  system: "NaV1.1 (Homo sapiens (Human))"
  sign qualifier: "<"
  test result: 4.52
- compound: "Cc1cc(S(=O)(=O)Nc2cscn2)c(F)cc1N(C)[C@H]1CCN(Cc2cc3n(n2)CCCC3)C1 [Example 151]"
  system: "NaV1.1 (Homo sapiens (Human))"
  sign qualifier: "<"
  test result: 4.52
- compound: "COc1cccnc1CN1CC[C@H](N(C)c2cc(F)c(S(=O)(=O)Nc3cscn3)cc2Cl)C1 [Example 176, formate]"
  system: "NaV1.1 (Homo sapiens (Human))"
  sign qualifier: "<"
  test result: 4.52
- compound: "COc1cccnc1CN1CC[C@H](N(C)c2cc(F)c(S(=O)(=O)Nc3cscn3)cc2C)C1 [Example 120, formate]"
  system: "NaV1.1 (Homo sapiens (Human))"
  sign qualifier: "<"
  test result: 4.52
- compound: "CN(c1cc(F)c(S(=O)(=O)Nc2cscn2)c(F)c1Cl)[C@H]1CCN(Cc2ccccc2)C1 [Example 102, formate]"
  system: "NaV1.1 (Homo sapiens (Human))"
  sign qualifier: "<"
  test result: 4.52
- compound: "O=S(=O)(Nc1cscn1)c1c(F)cc(O[C@H]2CCN(Cc3ccccc3)C2)c(Cl)c1F [Example 268, hydrochloride]"
  system: "NaV1.1 (Homo sapiens (Human))"
  sign qualifier: "<"
  test result: 4.52
- compound: "O=S(=O)(Nc1nccs1)c1ccc(OC2CCN(Cc3ccc4ccccc4c3)CC2)c(Cl)c1 [Example 51, 2,2,2-trifluoroacetate]"
  system: "NaV1.1 (Homo sapiens (Human))"
  sign qualifier: "="
  test result: 4.75
- compound: "CC[C@@H](c1ccccc1Cl)N1CC[C@H](N(C)c2cc(F)c(S(=O)(=O)Nc3cscn3)cc2Cl)C1 [Example 248, 2,2,2-trifluoroacetate]"
  system: "NaV1.1 (Homo sapiens (Human))"
  sign qualifier: "="
  test result: 5.26
